Source: patent US11471456B2

# measurement notes: HPLC solubility in SGF, FaSSIF, FeSSIF at 37° C.
# Assay type: physicochemical
# cond: simulated gastric fluid, thermodynamic from solid, SGF, 2 hr
result type: solubility at 2 h (µg/mL)

>>> readout_value("CC(C)(O)[C@H]1CC[C@H](Nc2ccc3ncc(-c4cccc(C(F)(F)F)c4)n3n2)CC1 [compound of structure (I)]")
1270

----------
# measurement notes: HPLC solubility in SGF, FaSSIF, FeSSIF at 37° C.
# Format: physicochemical
# cond: simulated gastric fluid, thermodynamic from solid, SGF, 24 hr
result type: solubility at 24 h (µg/mL)

>>> readout_value("CC(C)(O)[C@H]1CC[C@H](Nc2ccc3ncc(-c4cccc(C(F)(F)F)c4)n3n2)CC1")
903
